Where do the numbers come from? From ChEMBL document CHEMBL1140628.

This listing pairs compounds with measured pIC50.
EXPERIMENTAL SYSTEM: Mitogen-activated protein kinase 10 (Homo sapiens, UniProt P53779)
Sequence (P53779 whole entry): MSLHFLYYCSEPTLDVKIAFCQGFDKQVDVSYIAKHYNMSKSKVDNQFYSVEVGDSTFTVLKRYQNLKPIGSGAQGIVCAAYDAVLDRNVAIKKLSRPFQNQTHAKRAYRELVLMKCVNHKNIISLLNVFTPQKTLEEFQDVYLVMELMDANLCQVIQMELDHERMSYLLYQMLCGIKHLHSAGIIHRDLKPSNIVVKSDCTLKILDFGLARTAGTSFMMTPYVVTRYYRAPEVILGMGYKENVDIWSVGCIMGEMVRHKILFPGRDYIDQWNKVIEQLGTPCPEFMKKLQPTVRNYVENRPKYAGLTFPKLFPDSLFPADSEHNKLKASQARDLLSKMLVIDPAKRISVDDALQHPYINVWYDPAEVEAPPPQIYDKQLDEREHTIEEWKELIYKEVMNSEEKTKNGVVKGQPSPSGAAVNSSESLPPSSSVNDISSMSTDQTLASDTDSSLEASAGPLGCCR
PROCEDURE TEXT: Inhibition of JNK3
pIC50: −log10 of the molar value.

COMPOUND	EXPERIMENTAL SYSTEM	pIC50
COc1ccc(CCNc2nccc(/C(C#N)=C3\Nc4ccccc4S3)n2)cc1	Mitogen-activated protein kinase 10 (Homo sapiens, UniProt P53779)	8.51
NC1=CC=C2SN=C3c4ccccc4C(=O)C1C23 (stereo not given)	Mitogen-activated protein kinase 10 (Homo sapiens, UniProt P53779)	6.40
Oc1c2ccccc2c2c3c(cccc13)N=N2 [SP-600125]	Mitogen-activated protein kinase 10 (Homo sapiens, UniProt P53779)	6.72
N#C/C(=C1/Nc2ccccc2S1)c1ccnc(NCCc2ccc(S(N)(=O)=O)cc2)n1	Mitogen-activated protein kinase 10 (Homo sapiens, UniProt P53779)	7.39
CCCn1c(C2CCN(C)CC2)nc(-c2ccc(Cl)c(Cl)c2)c1-c1ccnc(NC2CC2)n1	Mitogen-activated protein kinase 10 (Homo sapiens, UniProt P53779)	8.80
